System: DLG1_1, Q12959
Measurement Description: holdup assay
Design: key: below the threshold = too weak to quantify, mostly under pKd 3.1 to 4
Applied Conditions: plain residues with an end cap or a label only (N-terminal biotin on a linker: ado-ado)
Reported Metric: pKd

INSERT INTO assay_data (binder, reported_metric, value_measured) VALUES
  ('QHKTQLQTLI [BPIFA2, Q96DR5]', 'pKd', 4.34),
  ('TKGPRGPTRV [SAPCD1, Q5SSQ6]', 'pKd', 4.38),
  ('RRISSLESEV [GRIN2C, Q14957]', 'pKd', 4.86),
  ('AKPSRISTVV [IQSEC2, Q5JU85]', 'pKd', 4.81),
  ('YRLAQESGLV [ABCC6, O95255]', 'pKd', 'below the threshold'),
  ('SARSRLSSNL [HCN2, Q9UL51]', 'pKd', 'below the threshold'),
  ('QGPVETESVV [SLC45A4, Q5BKX6]', 'pKd', 4.19),
  ('QSARLWETSI [ADAM22, Q9P0K1]', 'pKd', 4.21);

Origin of values: paper PMC9482650
